Molecular target: trypsin
Assay: TRF ELISA, Fab on biotinylated trypsin
Think of 70000 as a floor: if TRF signal for 2.4 ug/mL Fab stands on it or above, it is criterion met; beneath it, criterion not met.

INSERT INTO assay_data (binder, answer_label) VALUES
  ('KB_A07 Fab (Fab, V domains shown) VH: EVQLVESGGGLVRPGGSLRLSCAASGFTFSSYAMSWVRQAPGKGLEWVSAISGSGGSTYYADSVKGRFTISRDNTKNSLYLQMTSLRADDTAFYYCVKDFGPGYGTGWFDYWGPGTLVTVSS VL: YLNWYQQKPGKAPKLLIYAAGVCPRILMRCKQDSDCLAGCVCGPNGFCGSRSGVPSRFSGSGSGTDFTLTISSLQPEDFATYYCQQGASPPYTFGQGTKVEIKR', 'criterion met'),
  ('KB_A02 Fab (Fab, V domains shown) VH: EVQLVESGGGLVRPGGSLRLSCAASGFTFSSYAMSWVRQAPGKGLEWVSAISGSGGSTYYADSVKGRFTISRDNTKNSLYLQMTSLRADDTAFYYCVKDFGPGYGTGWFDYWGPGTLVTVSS VL: AVNWYQQLPGKAPKLLIYAAAKCPRILMRCKQDSDCLAGCVCGPNGFCGGASGVSDRFSGSIDSSSNSASLTISGLKPEDEGDYYCQSYDSSNRWVFGGGTKVTVLG', 'criterion met'),
  ('KB_B02 Fab (Fab, V domains shown) VH: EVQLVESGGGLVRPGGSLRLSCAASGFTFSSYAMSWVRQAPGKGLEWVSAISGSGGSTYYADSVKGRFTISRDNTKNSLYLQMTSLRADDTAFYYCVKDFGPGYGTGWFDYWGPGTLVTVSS VL: AVNWYQQLPGKAPKLLIYAAVGCPRILMRCKQDSDCLAGCVCGPNGFCGTGSGIPERFSGSKSGNTASLTISGLQAEDEGDYYCAAWDDSLSGPVFGGGTKLTVLG', 'criterion not met'),
  ('KB_A11 Fab (Fab, V domains shown) VH: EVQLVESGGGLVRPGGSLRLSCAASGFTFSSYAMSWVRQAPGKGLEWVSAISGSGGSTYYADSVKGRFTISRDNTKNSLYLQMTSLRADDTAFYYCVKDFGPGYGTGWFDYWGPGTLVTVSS VL: YLNWYQQKPGKAPKLLIYAAEICPRILMRCKQDSDCLAGCVCGPNGFCGPSSGIPARFSGSGYGTDFTLTINNIESEDAAYYFCLQHDNFPYTFGQGTKVEIKR', 'criterion met');
